For each record, write down the corresponding total protein half-life in vivo.
test: total protein half-life in vivo (active degradation + dilution); higher = more stable protein; settings: wild type E. coli NCM3722; growth: N-lim chemostat; doubling time 12 h
Give bare numbers, in h.

sequence_record: MPSTPEEKKKVLTRVRRIRGQIDALERSLEGDAECRAILQQIAAVRGAANGLMAEVLESHIRETFDRNDCYSREVSQSVDDTIELVRAYLK [P0AAP3]
measure_unit: h
recorded_number: 7.59

sequence_record: MAGNTIGQLFRVTTFGESHGLALGCIVDGVPPGIPLTEADLQHDLDRRRPGTSRYTTQRREPDQVKILSGVFEGVTTGTSIGLLIENTDQRSQDYSAIKDVFRPGHADYTYEQKYGLRDYRGGGRSSARETAMRVAAGAIAKKYLAEKFGIEIRGCLTQMGDIPLDIKDWSQVEQNPFFCPDPDKIDALDELMRALKKEGDSIGAKVTVVASGVPAGLGEPVFDRLDADIAHALMSINAVKGVEIGDGFDVVALRGSQNRDEITKDGFQSNHAGGILGGISSGQQIIAHMALKPTSSITVPGRTINRFGEEVEMITKGRHDPCVGIRAVPIAEAMLAIVLMDHLLRQRAQNADVKTDIPRW
measure_unit: h
recorded_number: 9.61

Dear colleague, I am looking for the recorded total protein half-life in vivo of the following sequence: MSQNLDATAINQIHALISAQGVNEIISKIGADAVALPENFRIHDLEKFNLNRFRFRGALSTASIDDFTRYSKDLADEGTRCFIDADNMRAVSVLNLGTIDEPGHADNTATLKLKKTAPFSALLSVNGERNSQKSLAEWIEDWADYLVGFDANGDAIQATKAAAAIRKITIEANQTADFEDNDFSGKRSLMESVEAKTKDIMPVAFEFKCVPFEGLKERPFKLRLSIITGDRPVLVLRIIQLEAVQEDMANEFRDLLVEKFKDSKVETFIGTFTA
5.29

---

assay: total protein half-life in vivo (active degradation + dilution); higher = more stable protein; conditions: wild type E. coli NCM3722; growth: N-lim chemostat; doubling time 6 h
recorded_endpoint: total protein half-life in vivo (h)
Give bare numbers, in h.

sequence_record: MLKIIRAGMYTTVQDGGRHGFRQSGISHCGALDMPALRIANLLVGNDANAPALEITLGQLTVEFETDGWFALTGAGCEARLDDNAVWTGWRLPMKAGQRLTLKRPQHGMRSYLAVAGGIDVPPVMGSCSTDLKVGIGGLEGRLLKDGDRLPIGKSKRDSMEAQGVKQLLWGNRIRALPGPEYHEFDRASQDAFWRSPWQLSSQSNRMGYRLQGQILKRTTDRELLSHGLLPGVVQVPHNGQPIVLMNDAQTTGGYPRIACIIEADMYHLAQIPLGQPIHFVQCSLEEALKARQDQQRYFEQLAWRLHNEN
recorded_number: 5.25
//
sequence_record: MSKIKGNVKWFNESKGFGFITPEDGSKDVFVHFSAIQTNGFKTLAEGQRVEFEITNGAKGPSAANVIAL [P0A972]
recorded_number: 1.8
//
sequence_record: MRRTFIKKEGVVITTLARYLLGEKCGNRLKTIDELANECRSSVGLTQAALKTLESSGAIRIERRGRNGSYLVEMDNKALLTHVDINNVVCAMPLPYTRLYEGLASGLKAQFDGIPFYYAHMRGADIRVECLLNGVYDMAVVSRLAAESYLTQKGLCLALELGPHTYVGEHQLICRKGESANVKRVGLDNRSADQKIMTDVFFGGSDVERVDLSYHESLQRIVKGDVDAVIWNVVAENELTMLGLEATPLTDDPRFLQATEAVVLTRVDDYPMQQLLRAVVDKHALLAHQQRVVSGEQEPSY
recorded_number: 4.68
//
sequence_record: MKQYLIAPSILSADFARLGEDTAKALAAGADVVHFDVMDNHYVPNLTIGPMVLKSLRNYGITAPIDVHLMVKPVDRIVPDFAAAGASIITFHPEASEHVDRTLQLIKENGCKAGLVFNPATPLSYLDYVMDKLDVILLMSVNPGFGGQSFIPQTLDKLREVRRRIDESGFDIRLEVDGGVKVNNIGEIAAAGADMFVAGSAIFDQPDYKKVIDEMRSELAKVSHE [P0AG07]
recorded_number: 4.84
//
sequence_record: MSKRYFVTGTDTEVGKTVASCALLQAAKAAGYRTAGYKPVASGSEKTPEGLRNSDALALQRNSSLQLDYATVNPYTFAEPTSPHIISAQEGRPIESLVMSAGLRALEQQADWVLVEGAGGWFTPLSDTFTFADWVTQEQLPVILVVGVKLGCINHAMLTAQVIQHAGLTLAGWVANDVTPPGKRHAEYMTTLTRMIPAPLLGEIPWLAENPENAATGKYINLALL
recorded_number: 5.44

Return reported total protein half-life in vivo values for all items listed beneath this line.
1. MLILISPAKTLDYQSPLTTTRYTLPELLDNSQQLIHEARKLTPPQISTLMRISDKLAGINAARFHDWQPDFTPANARQAILAFKGDVYTGLQAETFSEDDFDFAQQHLRMLSGLYGVLRPLDLMQPYRLEMGIRLENARGKDLYQFWGDIITNKLNEALAAQGDNVVINLASDEYFKSVKPKKLNAEIIKPVFLDEKNGKFKIISFYAKKARGLMSRFIIENRLTKPEQLTGFNSEGYFFDEDSSSNGELVFKRYEQR [P0A8I3]
2. MKKTAAIISACMLTFALSACSGSNYVMHTNDGRTIVSDGKPQTDNDTGMISYKDANGNKQQINRTDVKEMVELDQ
3. MTMNSFERRNKIIQLVNEQGTVLVQDLAGVFAASEATIRADLRFLEQKGVVTRFHGGAAKIMSGNSETETQEVGFKERFQLASAPKNRIAQAAVKMIHEGMTDPTHVIWTQA

[2.53, 5.31, 5.69]

---

test: total protein half-life in vivo (active degradation + dilution); higher = more stable protein; conditions: wild type E. coli NCM3722; growth: N-lim chemostat; doubling time 6 h
recorded_endpoint: total protein half-life in vivo (h)
One number for each entry, in h.

# annotated cases, reported total protein half-life in vivo shown
sequence_record: MKKLITANDIREAHARGEQAMSVVLRASIITPEAREVADLLGFTITECDESIPVTASVPASVPADKTESQRIRETIIAQLPEGQFTESLVAQLMEKVMKEKQSLEQGAMQPSFKSVTGKGGIKVIDGSSVKFGRFDGAEPHCVGLTDLVTGDDGSSMAAGFMQWENAFFPWTLNYDEIDMVLEGELHVRHEGQTMIAKAGDVMFIPKGSSIEFGTTSSVKFLYVAWPANWQSL
total protein half-life in vivo [h]: 1.84
--
sequence_record: MSIEIANIKKSFGRTQVLNDISLDIPSGQMVALLGPSGSGKTTLLRIIAGLEHQTSGHIRFHGTDVSRLHARDRKVGFVFQHYALFRHMTVFDNIAFGLTVLPRRERPNAAAIKAKVTKLLEMVQLAHLADRYPAQLSGGQKQRVALARALAVEPQILLLDEPFGALDAQVRKELRRWLRQLHEELKFTSVFVTHDQEEATEVADRVVVMSQGNIEQADAPDQVWREPATRFVLEFMGEVNRLQGTIRGGQFHVGAHRWPLGYTPAYQGPVDLFLRPWEVDISRRTSLDSPLPVQVLEASPKGHYTQLVVQPLGWYNEPLTVVMHGDDAPQRGERLFVGLQHARLYNGDERIETRDEELALAQSA
total protein half-life in vivo [h]: 2.08

Read the next record carefully.
Which total protein half-life in vivo reading was recorded for the sequence MMNPLIIKLGGVLLDSEEALERLFSALVNYRESHQRPLVIVHGGGCVVDELMKGLNLPVKKKNGLRVTPADQIDIITGALAGTANKTLLAWAKKHQIAAVGLFLGDGDSVKVTQLDEELGHVGLAQPGSPKLINSLLENGYLPVVSSIGVTDEGQLMNVNADQAATALAATLGADLILLSDVSGILDGKGQRIAEMTAAKAEQLIEQGIITDGMIVKVNAALDAARTLGRPVDIASWRHAEQLPALFNGMPMGTRILA [P0A6C8] ?
3.4

---

Exercise: for every item that follows, state its recorded total protein half-life in vivo.
assay: total protein half-life in vivo (active degradation + dilution); higher = more stable protein; conditions: wild type E. coli NCM3722; growth: N-lim chemostat; doubling time 6 h
One number for each entry, in h.

sequence_record: MLYIFRLIITVIYSILVCVFGSIYCLFSPRNPKHVATFGHMFGRLAPLFGLKVECRKPTDAESYGNAIYIANHQNNYDMVTASNIVQPPTVTVGKKSLLWIPFFGQLYWLTGNLLIDRNNRTKAHGTIAEVVNHFKKRRISIWMFPEGTRSRGRGLLPFKTGAFHAAIAAGVPIIPVCVSTTSNKINLNRLHNGLVIVEMLPPIDVSQYGKDQVRELAAHCRSIMEQKIAELDKEVAEREAAGKV
total protein half-life in vivo (h): 5.93

Value sought for every listed sequence: total protein half-life in vivo.
1. MKLISNDLRDGDKLPHRHVFNGMGYDGDNISPHLAWDDVPAGTKSFVVTCYDPDAPTGSGWWHWVVVNLPADTRVLPQGFGSGLVAMPDGVLQTRTDFGKTGYDGAAPPKGETHRYIFTVHALDIERIDVDEGASGAMVGFNVHFHSLASASITAMFS
2. MSEPLDLNQLAQKIKQWGLELGFQQVGITDTDLSESEPKLQAWLDKQYHGEMDWMARHGMLRARPHELLPGTLRVISVRMNYLPANAAFASTLKNPKLGYVSRYALGRDYHKLLRNRLKKLGEMIQQHCVSLNFRPFVDSAPILERPLAEKAGLGWTGKHSLILNREAGSFFFLGELLVDIPLPVDQPVEEGCGKCVACMTICPTGAIVEPYTVDARRCISYLTIELEGAIPEELRPLMGNRIYGCDDCQLICPWNRYSQLTTEEDFSPRKPLHAPELIELFAWSEEKFLKVTEGSAIRRIGHLRWLRNIAVALGNAPWDETILTALESRKGEHPLLDEHIAWAIAQQIERRNACIVEVQLPKKQRLVRVIEKGLPRDA
3. MEFAFYICGLIAILATLRVITHTNPVHALLYLIISLLAISGVFFSLGAYFAGALEIIVYAGAIMVLFVFVVMMLNLGGSEIEQERQWLKPQVWIGPAILSAIMLVVIVYAILGVNDQGIDGTPISAKAVGITLFGPYVLAVELASMLLLAGLVVAFHVGREERAGEVLSNRKDDSAKRKTEEHA [P0AFE0]

1: 5.42; 2: 1.85; 3: 6.07

Where do these numbers come from? They come from the supplement of paper PMC11246515.
